System: UO-31 renal
Assay: NCI tumour cell line growth inhibition, 48 h
Below: a set of entries, each annotated with reported TGI.
QUANTITY NAME: TGI

O=C(/C=C/c1ccccc1Cl)c1ccc(O)cc1 :: 14 µM
Nc1sccc1S(=O)(=O)c1ccsc1N :: > 100 µM
C=CCOC1=C2CC[C@H](O)[C@@]2(C)CCC1=O :: > 100 µM
CSc1sc(C)cc1-c1nsc(=O)o1 :: > 100 µM
CCOC(=O)CCC(NC(=O)N1CCN(c2c(C)nc(C)[nH]c2=O)CC1)C(=O)OCC (stereo unspecified) :: > 100 µM
COc1cc(C2=Nc3c/c(=C\c4c(O)[nH]c5ccc(Cl)cc45)ccc3=N2)cc(OC)c1OC :: 16.1 µM

Ref: PubChem BioAssay (NCI)
